target.desc: T1, AFP158/HLA-A*02:01 complex (human)
T1 construct: flowed over the chip in SPR; also called AFP158 pro
test.details: SPR, scFv captured, pMHC in flow;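 also: complex injected at several concentrations over crude scFv, association then running-buffer dissociation, KD estimated from kinetic on- and off-rate constants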
measurement.kind: Kd (nM)
Quick note: give the figure in nM, leave out the unit.

q: Identify Kd associated with the binder HG108D (scFv, AS170036 VL1VH1 scFv mutein; also called AS170036 VL1VH1-VHG108D) scFv: QSALTQPRSVSGSPGQSVTISCAGTSSDVGSENYVSWYQQHPGKAPKLMIYQVNKRASGVPDRFSGSKSGNTASLTISGLQAEDEADYYCASYRSSDHNIVFGGGTKLTVLGGGGSGGGGSGGGGSEVQLVESGGGLVQPGGSLRLSCAASGFTFSSYAMSWVRQAPGKGLEWVSTINSGTGSPYYADSVKGRFTISRDNSKNTLYLQMNSLRAEDTAVYYCAKNFFDGSWFLDPPAMDYWGQGTLVTVSSHHHHHH
a: 42

q: Identify Kd associated with the binder HG56W (scFv, AS170036 VL1VH1 scFv mutein) scFv: QSALTQPRSVSGSPGQSVTISCAGTSSDVGSENYVSWYQQHPGKAPKLMIYQVNKRASGVPDRFSGSKSGNTASLTISGLQAEDEADYYCASYRSSDHNIVFGGGTKLTVLGGGGSGGGGSGGGGSEVQLVESGGGLVQPGGSLRLSCAASGFTFSSYAMSWVRQAPGKGLEWVSTINSGTWSPYYADSVKGRFTISRDNSKNTLYLQMNSLRAEDTAVYYCAKNFFDGSWFLGPPAMDYWGQGTLVTVSSHHHHHH
a: 130

q: Identify Kd associated with the binder HP58G (scFv, AS170036 VL1VH1 scFv mutein) scFv: QSALTQPRSVSGSPGQSVTISCAGTSSDVGSENYVSWYQQHPGKAPKLMIYQVNKRASGVPDRFSGSKSGNTASLTISGLQAEDEADYYCASYRSSDHNIVFGGGTKLTVLGGGGSGGGGSGGGGSEVQLVESGGGLVQPGGSLRLSCAASGFTFSSYAMSWVRQAPGKGLEWVSTINSGTGSGYYADSVKGRFTISRDNSKNTLYLQMNSLRAEDTAVYYCAKNFFDGSWFLGPPAMDYWGQGTLVTVSSHHHHHH
a: 320
